- measurementProtocol: self-splicing fitness, log relative to wild type (ln ratio); higher = more splicing; Tetrahymena group I intron in knt gene, E. coli kanamycin selection, DiMSum; sequences stand for … in CUCUCU…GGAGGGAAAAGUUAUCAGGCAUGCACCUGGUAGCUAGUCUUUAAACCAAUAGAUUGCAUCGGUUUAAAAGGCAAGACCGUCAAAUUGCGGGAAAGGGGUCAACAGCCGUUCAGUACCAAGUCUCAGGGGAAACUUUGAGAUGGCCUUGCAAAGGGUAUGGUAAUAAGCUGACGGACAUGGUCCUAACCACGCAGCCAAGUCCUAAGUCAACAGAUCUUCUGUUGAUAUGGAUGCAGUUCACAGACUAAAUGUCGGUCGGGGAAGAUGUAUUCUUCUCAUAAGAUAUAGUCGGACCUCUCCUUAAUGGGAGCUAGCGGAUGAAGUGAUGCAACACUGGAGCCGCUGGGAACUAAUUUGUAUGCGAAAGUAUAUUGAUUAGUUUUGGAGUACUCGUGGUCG;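 note: selection with 25 µg/mL kanamycin versus none on LB agar overnight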
- measurementConditions: 30 °C
measurementLabel: self-splicing fitness (ln)
// print number alone

Below: 2 sequences and their reported self-splicing fitness (ln).
{"columns": ["sequenceString", "number"],
 "data": [
  ["CGUCAGCAAUAUUACGGCUU", -1.34],
  ["ACGGAGCAAUAUUACGGCGG", -1.4]
]}

INPUT: Tell me measured self-splicing fitness (ln) for UCCCAGCAAUAUUACGCAGU please.
OUTPUT: -1.21

* * *

- measurementProtocol: self-splicing fitness, log relative to wild type (ln ratio); higher = more splicing; Tetrahymena group I intron in knt gene, E. coli kanamycin selection, DiMSum; sequences stand for … in CUCUCU…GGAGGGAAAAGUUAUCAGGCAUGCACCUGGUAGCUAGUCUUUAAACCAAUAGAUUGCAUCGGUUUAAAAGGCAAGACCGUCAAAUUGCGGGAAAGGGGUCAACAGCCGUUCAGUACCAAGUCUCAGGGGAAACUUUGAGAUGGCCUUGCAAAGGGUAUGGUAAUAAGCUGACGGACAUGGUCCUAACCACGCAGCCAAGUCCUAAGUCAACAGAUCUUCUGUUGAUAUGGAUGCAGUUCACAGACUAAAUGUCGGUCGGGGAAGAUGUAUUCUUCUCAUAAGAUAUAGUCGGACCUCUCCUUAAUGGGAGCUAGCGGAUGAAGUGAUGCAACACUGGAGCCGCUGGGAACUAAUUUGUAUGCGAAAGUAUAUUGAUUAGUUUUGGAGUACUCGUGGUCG
- measurementConditions: 37 °C
Label MET when self-splicing fitness (ln) is at or above -2; anything below gets NOT MET.

Here's what some known entries look like.
{"columns": ["sequenceString", "categoryLabel"],
 "data": [
  ["UCACAGCAAUAUUACGCGUG", "NOT MET"],
  ["UCUAAGCAAUAUUACGUGUG", "MET"],
  ["UCCGAGCAAUAUUACGGUGG", "NOT MET"]
]}

INPUT: hey, is self-splicing fitness (ln) for this one >= -2? CCUCAGCAAUAUUACGACGU
OUTPUT: NOT MET

INPUT: hey, is self-splicing fitness (ln) for this one >= -2? AAUCAGCAAUAUUACGUUUA
OUTPUT: MET

* * *

# self-splicing fitness (ln) listing for each entry below
- measurementProtocol: self-splicing fitness, log relative to wild type (ln ratio); higher = more splicing; Tetrahymena group I intron in knt gene, E. coli kanamycin selection, DiMSum; sequences stand for … in CUCUCU…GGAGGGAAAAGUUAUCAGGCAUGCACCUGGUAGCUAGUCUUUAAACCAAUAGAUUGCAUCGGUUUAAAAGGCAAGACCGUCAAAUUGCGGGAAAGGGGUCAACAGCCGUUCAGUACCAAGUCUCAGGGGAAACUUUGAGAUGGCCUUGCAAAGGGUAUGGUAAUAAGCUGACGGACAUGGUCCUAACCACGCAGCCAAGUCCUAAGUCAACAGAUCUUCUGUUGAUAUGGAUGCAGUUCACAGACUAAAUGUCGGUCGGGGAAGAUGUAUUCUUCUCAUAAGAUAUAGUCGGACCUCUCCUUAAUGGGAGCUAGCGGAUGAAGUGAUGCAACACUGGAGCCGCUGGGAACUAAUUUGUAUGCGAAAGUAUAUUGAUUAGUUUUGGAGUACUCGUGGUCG
- measurementConditions: 30 °C
// print number alone

Below: 3 sequences and their reported self-splicing fitness (ln).
{"columns": ["sequenceString", "self-splicing fitness (ln)"],
 "data": [
  ["GGGUAGCAAUAUUACGGUAC", -2.04],
  ["UGGGAGCAAUAUUACGUUGU", -3.01],
  ["UGGCAGCAAUAUUACGAAGG", -2.93]
]}

INPUT: Tell me measured self-splicing fitness (ln) for UUGCAGCAAUAUUACGCUAU please.
OUTPUT: -2.99

* * *

# self-splicing fitness (ln) listing for each entry below
- measurementProtocol: self-splicing fitness, log relative to wild type (ln ratio); higher = more splicing; Tetrahymena group I intron in knt gene, E. coli kanamycin selection, DiMSum; sequences stand for … in CUCUCU…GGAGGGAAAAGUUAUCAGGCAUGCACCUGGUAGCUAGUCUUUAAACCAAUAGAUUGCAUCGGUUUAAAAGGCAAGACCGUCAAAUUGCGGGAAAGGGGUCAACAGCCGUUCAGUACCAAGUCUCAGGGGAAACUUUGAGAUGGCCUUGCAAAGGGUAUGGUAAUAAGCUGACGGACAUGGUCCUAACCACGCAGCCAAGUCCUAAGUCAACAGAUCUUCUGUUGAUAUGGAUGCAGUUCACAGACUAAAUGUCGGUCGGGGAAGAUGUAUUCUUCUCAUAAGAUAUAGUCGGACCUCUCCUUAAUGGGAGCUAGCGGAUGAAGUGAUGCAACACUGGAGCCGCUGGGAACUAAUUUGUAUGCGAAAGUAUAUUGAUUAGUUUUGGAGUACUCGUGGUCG
- measurementConditions: 37 °C
// print number alone

Below: 2 sequences and their reported self-splicing fitness (ln).
{"columns": ["sequenceString", "self-splicing fitness (ln)"],
 "data": [
  ["CGACAGCAAUAUUACGGAAC", -2.74],
  ["UGCGAGCAAUAUUACGCCAU", -2.45]
]}

INPUT: Tell me measured self-splicing fitness (ln) for AAGAAGCAAUAUUACGUCGU please.
OUTPUT: -0.567

INPUT: Tell me measured self-splicing fitness (ln) for ACAAAGCAAUAUUACGAUAG please.
OUTPUT: -2.21

* * *

- measurementProtocol: self-splicing fitness, log relative to wild type (ln ratio); higher = more splicing; Tetrahymena group I intron in knt gene, E. coli kanamycin selection, DiMSum; sequences stand for … in CUCUCU…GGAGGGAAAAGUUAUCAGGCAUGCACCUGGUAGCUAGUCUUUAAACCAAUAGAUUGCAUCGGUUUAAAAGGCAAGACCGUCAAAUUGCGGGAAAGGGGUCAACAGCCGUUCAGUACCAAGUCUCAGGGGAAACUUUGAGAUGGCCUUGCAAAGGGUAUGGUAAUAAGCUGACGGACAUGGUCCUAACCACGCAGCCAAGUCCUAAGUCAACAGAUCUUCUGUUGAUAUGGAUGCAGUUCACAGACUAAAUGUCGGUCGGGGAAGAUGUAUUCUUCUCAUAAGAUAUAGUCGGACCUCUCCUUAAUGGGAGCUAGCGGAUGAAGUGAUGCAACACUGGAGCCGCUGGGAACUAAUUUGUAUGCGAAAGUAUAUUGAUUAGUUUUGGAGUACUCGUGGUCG
- measurementConditions: 30 °C
# self-splicing fitness (ln) listing for each entry below
// print number alone

{"columns": ["sequenceString", "self-splicing fitness (ln)"],
 "data": [
  ["AUUCAGCAAUAUUACGCCAU", -1.46],
  ["AGAUAGCAAUAUUACGAUAA", -2.02],
  ["CUUUAGCAAUAUUACGUUGG", -3.1]
]}

INPUT: Tell me measured self-splicing fitness (ln) for GACCAGCAAUAUUACGUGCA please.
OUTPUT: -0.378

INPUT: Tell me measured self-splicing fitness (ln) for UCGCAGCAAUAUUACGGCUG please.
OUTPUT: -3.46

* * *

- measurementProtocol: self-splicing fitness, log relative to wild type (ln ratio); higher = more splicing; Tetrahymena group I intron in knt gene, E. coli kanamycin selection, DiMSum; sequences stand for … in CUCUCU…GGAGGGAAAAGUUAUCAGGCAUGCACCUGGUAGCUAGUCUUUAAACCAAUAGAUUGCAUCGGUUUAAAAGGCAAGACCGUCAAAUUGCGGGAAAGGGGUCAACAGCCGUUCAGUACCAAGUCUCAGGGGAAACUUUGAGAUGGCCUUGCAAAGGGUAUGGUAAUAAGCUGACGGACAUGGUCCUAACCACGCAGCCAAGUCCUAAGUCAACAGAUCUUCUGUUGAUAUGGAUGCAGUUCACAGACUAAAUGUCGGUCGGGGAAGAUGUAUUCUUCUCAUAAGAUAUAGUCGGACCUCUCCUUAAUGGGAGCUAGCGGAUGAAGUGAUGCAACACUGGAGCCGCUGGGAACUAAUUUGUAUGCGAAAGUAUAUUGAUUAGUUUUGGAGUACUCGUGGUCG
- measurementConditions: 37 °C
measurementLabel: self-splicing fitness (ln)

{"columns": ["sequenceString", "self-splicing fitness (ln)"],
 "data": [
  ["CAAAAGCAAUAUUACGUAGU", -2.76],
  ["UCGGAGCAAUAUUACGGUGU", -1.7]
]}

Now, please, on to the next sequence.
INPUT: Tell me measured self-splicing fitness (ln) for GUAUAGCAAUAUUACGUGCA please.
OUTPUT: -0.516
